- assay-overview: P. aeruginosa biofilm formation inhibitors, primary screen, PAO1 strain, BacTiter-Glo luminescence, LB-PBS (AID 1144)
- assay-context: 12 h, higher = more signal
# z-score annotations
Returns: the value as a bare number; no unit string appended.

Previously resolved entries follow.
INSERT INTO assay_data (compound, numeric_readout) VALUES
  ('CN1C(=O)C2C=CC(C(O)c3ccc(F)cc3)N(NC(=O)OC(C)(C)C)C2C1=O (stereo not drawn)', 0.193),
  ('CCCCC(=O)N(CCN1CCOCC1)[C@@H]1CC(C(=O)NCCO)=C[C@H](Oc2c(I)cc(CO)cc2OC)[C@H]1O', -0.141),
  ('C=C(COC)C(=O)CC[C@H](OC(C)=O)c1ccc(OCCO)cc1', -0.856),
  ('[N-]=[N+]=Nc1ccccc1C[C@]1(C(=O)O)N=C(c2ccc(OCCCO)cc2)O[C@H]1c1ccccc1', -0.54),
  ('Cc1ccc(N2C(=O)c3ccccc3[C@](C)(C(=O)NCc3ccccc3)[C@@H]2c2ccc(CO)cc2)nc1', 0.493);

Q. Given the compound "CC(=O)NCCCC[C@@H]1NC(=O)[C@H]2C[C@@H](C(=O)NCCCCCNC(=O)CS)[C@@H](c3cccc(OCCO)c3)N2C1=O" , what is its reported z-score?
A. -0.93

Q. // lookup z-score for "CCOC(=O)C[C@H]1[C@H](OC(=O)c2ccc(-c3ccccc3)cc2)[C@@H](NC(=O)CC(C)C)c2cc(OCCCO)ccc2N1C(=O)c1ccccc1"
A. 0.0804

Q. Can you share its z-score? I mean this compound: "C=CC[C@H](OC(=O)Nc1ccc(SC)cc1)c1ccc(OCCO)cc1"
A. -0.982

* * *

In this section we review reported z-score values for a set of molecules.
- target: NADPH oxidase 5 (Homo sapiens) (UniProt Q96PH1)
- Sequence (Q96PH1 whole entry, looked up): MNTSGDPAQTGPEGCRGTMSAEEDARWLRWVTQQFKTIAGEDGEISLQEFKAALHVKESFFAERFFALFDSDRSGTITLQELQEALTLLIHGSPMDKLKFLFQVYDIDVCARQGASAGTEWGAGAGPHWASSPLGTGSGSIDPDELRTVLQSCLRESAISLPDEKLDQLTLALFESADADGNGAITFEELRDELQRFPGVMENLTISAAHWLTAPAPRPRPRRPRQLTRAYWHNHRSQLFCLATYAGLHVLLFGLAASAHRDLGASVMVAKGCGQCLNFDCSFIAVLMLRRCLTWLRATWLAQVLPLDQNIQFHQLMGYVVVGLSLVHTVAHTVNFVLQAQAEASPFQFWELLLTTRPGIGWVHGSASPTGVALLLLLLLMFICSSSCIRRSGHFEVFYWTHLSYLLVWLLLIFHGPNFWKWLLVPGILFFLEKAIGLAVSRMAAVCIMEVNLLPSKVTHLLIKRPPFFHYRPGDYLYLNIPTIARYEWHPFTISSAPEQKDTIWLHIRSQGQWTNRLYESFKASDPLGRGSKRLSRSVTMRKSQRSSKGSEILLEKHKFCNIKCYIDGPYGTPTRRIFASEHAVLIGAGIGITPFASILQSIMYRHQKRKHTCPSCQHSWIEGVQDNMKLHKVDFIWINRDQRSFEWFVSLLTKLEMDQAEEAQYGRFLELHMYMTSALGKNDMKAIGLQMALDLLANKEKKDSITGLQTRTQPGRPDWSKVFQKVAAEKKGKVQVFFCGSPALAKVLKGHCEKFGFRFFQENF
- assay-overview: NOX5-dependent H2O2 signal modulators, primary screen, NOX inhibitor project, cell-based, HEK293-NOX5, Amplex Red fluorescence (AID 1161)
- assay-context: HEK293-NOX5, ionomycin, 45 min, higher = more signal

Use these answered entries as a reference point.
INSERT INTO assay_data (molecule, endpoint, result) VALUES
  ('CC(=O)N1CC(C(O)C2C=CC3C(=O)NC(=O)C3N2Nc2ccc(Cl)cc2Cl)c2ccccc21 (configuration not stated)', 'z-score', -2.57),
  ('COc1ccc(C(O)C2C=CC3C(=O)N(c4ccccc4)C(=O)C3N2Nc2ccccc2)cc1 (configuration not stated)', 'z-score', -2.84),
  ('CC(C)[C@H]1NC(=O)[C@@]23C(=O)N[C@@H](Cc4ccccc4)C2[C@H](C)[C@@]2(C)O[C@H]2C3/C=C/C/C=C\CNC(=O)[C@H](Cc2ccccc2)NC1=O (some centres not stated)', 'z-score', 1.1),
  ('[N-]=[N+]=Nc1ccccc1C[C@]1(C(=O)O)N=C(c2ccc(OCCCO)cc2)O[C@H]1c1ccccc1N=[N+]=[N-]', 'z-score', -2.15),
  ('COc1ccc([Si](C)(C)[C@@H]2[C@@H](CC(=O)N3Cc4ccccc4C[C@H]3CO)O[C@]3(C(=O)N(Cc4ccc(N5CCC5=O)cc4)c4ccccc43)[C@H]2C)cc1', 'z-score', 2.36);

Q. Given the molecule "CC(C)(C)OC(=O)CC[C@]1(C(=O)N2CCCCC2)COC(c2ccc(OCCCO)cc2)=N1" , what is its reported z-score?
A. -2.08

Q. Returns the measured z-score for the input molecule. Input: "CN(C)C(=O)[C@@]1(CCC(=O)OC(C)(C)C)N=C(c2ccc(OCCCO)cc2)O[C@H]1c1ccccc1CN=[N+]=[N-]"
A. -0.901
